# STUDY_SYSTEM: T1, recombinant human MUC1-SEA (MUC1 antigen, Acrobiosystems, Cat: MU1-H52H9) (human, UniProt P15941 1039-1158)
# T1 construct: Bought protein, captured on an anti-His chip (so His-tagged)
# T1 sequence: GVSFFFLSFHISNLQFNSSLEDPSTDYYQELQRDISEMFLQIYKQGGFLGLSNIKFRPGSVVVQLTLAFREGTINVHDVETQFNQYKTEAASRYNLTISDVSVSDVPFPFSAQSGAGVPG
# PROTOCOL_NOTES: SPR; MUC1 antigen captured on anti-His CM5 chip, antibody as analyte
Each record here notes measured koff.
Record the value in s⁻¹, omitting the unit from your answer.

Known koff results, listed for orientation:
HM4 LM3 variant of humanized anti-MUC1 antibody SP66 (antibody, V domains shown, Humanized IgG expressed in CHO cells; only variable domains tied to the variant) VH: EIQLVQSGAEVKKPGSSVKVSCKVTGHSITRGSSWHWMRQAPGQGLEWIGYIHYGGGTSYNPSLKSRATLTRDTSTNTFYMELSSLRSEDTAFYFCARYSYDITYRWFFDVWGQGTLVTVSS VL: DIQMTQSPSTLSASVGDRVTITCRASQNIGTSIHWYQQKPGKAPKLLIKYASESISGVPSRFSGSGSGTEFTLTISSLQPDDFATYYCQQNNNWPLTFGQGTKVEVK; 0.000238
HM3 LM2 variant of humanized anti-MUC1 antibody SP66 (antibody, V domains shown, Humanized IgG expressed in CHO cells; only variable domains tied to the variant) VH: EIQLVQSGAEVKKPGSSVKVSCKVTGHSITRGSSWHWMRQAPGQGLEWIGYIHYGGGTSYNPSLKSRATLTRDTSTNTAYMELSSLRSEDTAFYFCARYSYDITYRWFFDVWGQGTLVTVSS VL: DIQMTQSPSTLSASVGDRVTITCRASQNIGTSIHWYQQKPGKAPKLLIKRASESISGVPSRFSGSGSGTEFTLTISSLQPDDFATYYCQQNNNWPLTFGQGTKVEVK; 0.000492
HM5 LM3 variant of humanized anti-MUC1 antibody SP66 (antibody, V domains shown, Humanized IgG expressed in CHO cells; only variable domains tied to the variant) VH: EIQLVQSGAEVKKPGSSVKVSCKVTGHSITRGSSWHWMRQAPGQGLEWIGYIHYGGGTSYNPSLKSRITITRDTSTNTFYMELSSLRSEDTAFYFCARYSYDITYRWFFDVWGQGTLVTVSS VL: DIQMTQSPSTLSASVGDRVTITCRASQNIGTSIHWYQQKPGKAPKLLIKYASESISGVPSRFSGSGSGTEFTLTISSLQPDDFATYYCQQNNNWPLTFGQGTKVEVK; 0.000198
humanized IgG1 anti-MUC1-SEA mAb (HM5 LM4) (antibody, V domains shown, also called Humanized anti-MUC1 SEA IgG1; humanized IgG anti-MUC1-SEA mAb) VH: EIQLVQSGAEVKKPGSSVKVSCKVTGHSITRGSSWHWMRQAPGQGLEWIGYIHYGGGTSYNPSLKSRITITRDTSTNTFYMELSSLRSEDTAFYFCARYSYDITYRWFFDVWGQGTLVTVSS VL: DIQMTQSPSTLSASVGDRVTITCRASQNIGTSIHWYQQKPGKAPKLLIKYASESISGVPSRFSGSGSGTEFTLTISSLQPDDFATYYCQQNNNWPLTFGQGTKVEIKR; 0.00015
HM3 LM3 variant of humanized anti-MUC1 antibody SP66 (antibody, V domains shown, Humanized IgG expressed in CHO cells; only variable domains tied to the variant) VH: EIQLVQSGAEVKKPGSSVKVSCKVTGHSITRGSSWHWMRQAPGQGLEWIGYIHYGGGTSYNPSLKSRATLTRDTSTNTAYMELSSLRSEDTAFYFCARYSYDITYRWFFDVWGQGTLVTVSS VL: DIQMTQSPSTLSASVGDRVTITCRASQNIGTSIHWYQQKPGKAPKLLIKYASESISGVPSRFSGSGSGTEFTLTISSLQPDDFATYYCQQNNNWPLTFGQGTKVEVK; 0.00347

Please turn your attention to the following entry.
Exercise: Let me know recorded koff for HM2 LM3 variant of humanized anti-MUC1 antibody SP66 (antibody, V domains shown, Humanized IgG expressed in CHO cells; only variable domains tied to the variant) VH: EIQLVQSGAEVKKPGSSVKVSCKVTGHSITRGSSWHWMRQAPGQGLEWIGYIHYGGGTSYNPSLKSRITITRDTSTNTAYMELSSLRSEDTAFYFCARYSYDITYRWFFDVWGQGTLVTVSS VL: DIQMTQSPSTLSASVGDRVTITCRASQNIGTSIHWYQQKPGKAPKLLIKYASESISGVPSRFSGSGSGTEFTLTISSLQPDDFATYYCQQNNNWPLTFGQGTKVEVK , thanks.
Solution: 0.000188
